# Tested target: recombinant soluble tissue factor and recombinant human factor VIIa (TF-VIIa) (Homo sapiens)
# Construct: conversion of coagulation factor VII to VIIa by Xa; purchased American Diagnostica, Greenwich Conn; host or cells: VIIa purchased; soluble TF made in house in E. coli
# Sequence (P08709 61-212 limits assumed): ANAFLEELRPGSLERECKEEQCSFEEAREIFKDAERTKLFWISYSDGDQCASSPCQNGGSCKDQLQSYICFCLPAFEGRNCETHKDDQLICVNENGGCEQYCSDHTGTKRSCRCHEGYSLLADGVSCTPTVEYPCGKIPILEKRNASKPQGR
# Sequence (P08709 213-466 limits assumed): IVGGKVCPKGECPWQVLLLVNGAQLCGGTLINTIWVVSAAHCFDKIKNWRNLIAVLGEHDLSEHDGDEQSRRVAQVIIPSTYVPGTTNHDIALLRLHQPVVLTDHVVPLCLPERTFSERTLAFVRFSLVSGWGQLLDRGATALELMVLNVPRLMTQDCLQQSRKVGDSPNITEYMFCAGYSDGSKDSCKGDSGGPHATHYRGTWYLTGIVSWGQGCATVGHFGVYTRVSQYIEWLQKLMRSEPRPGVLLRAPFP
# Sequence (P13726 33-251 partner limits assumed): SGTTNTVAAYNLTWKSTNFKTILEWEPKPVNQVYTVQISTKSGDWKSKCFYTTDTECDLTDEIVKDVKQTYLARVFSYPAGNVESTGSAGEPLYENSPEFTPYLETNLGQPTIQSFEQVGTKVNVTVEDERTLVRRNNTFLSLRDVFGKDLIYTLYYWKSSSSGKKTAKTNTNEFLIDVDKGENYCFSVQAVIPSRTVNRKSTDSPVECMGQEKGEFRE
# Experiment description: TF-VIIa Assay
# Type: biochemical
# Condition notes: read-out: IC50 TF-VIIa
Readout label: pIC50
When answering, recall that pIC50 equals minus log10 of the concentration in mol/L, and write that number alone.

Dear colleague, I am looking for the recorded pIC50 of the following compound: `CC(C)Nc1nc(Cl)c(-c2cc(N)cc(C(=O)NCc3cc(C(F)(F)F)cc(C(F)(F)F)c3)c2)n(CC(=O)NCc2ccc(C(=N)N)cc2)c1=O`
6.48

Which value of pIC50 has been reported for `CN(C)CC/N=C(\NCCN(C)C)c1ccc(CNC(=O)Cn2c(-c3cccc(N)c3)c(Cl)nc(NC3CCC3)c2=O)cc1` in the records?
4.20

# input compound: `CC(C)Nc1nc(Cl)c(-c2cc(N)cc(C(=O)NCc3ccccc3Cl)c2)n(CC(=O)NCc2ccc(C(=N)N)cc2)c1=O` ; wanted: its pIC50
8.05

Looking for the measured pIC50 of `CC(C)Nc1nc(Cl)c(-c2cc(N)cc(C(=O)NCc3ccc4ccccc4c3)c2)n(CC(=O)NCc2ccc(C(=N)N)cc2)c1=O` , can you help?
7.47

Endpoint output: pIC50 of CC(C)Nc1nc(Cl)c(-c2cccc(N)c2)n(CC(=O)NCC2CCC(C(=N)N)C=N2)c1=O (centres unmarked) . Value?
6.44

pIC50 for `N=C(N)c1ccc(CNC(=O)Cn2c(-c3cc(N)cc(C(=O)O)c3)cnc(NC3CCC3)c2=O)cc1` ?
7.28

Item CC(C)Nc1nc(Cl)c(-c2cc(N)cc(C(=O)NC3CCc4ccccc4C3)c2)n(CC(=O)NCc2ccc(C(=N)N)cc2)c1=O (centres unmarked) has what recorded pIC50?
7.73

# lookup: pIC50 of `N=C(N)c1ccc(C(=O)NCCn2c(-c3cccc(N)c3)c(Cl)nc(NC3CCC3)c2=O)cc1`
4.97

* * *

# Tested target: Human factor Xa (Homo sapiens)
# Experiment description: Xa Assay
# Type: biochemical
# Parameters: purchased Enzyme Research Laboratories, South Bend Ind
# Condition notes: at 100 μM inhibitor
Decide using inhibition at 100 µM: a value greater than or equal to 20% is TRUE, a smaller one is FALSE.

# check: inhibition at 100 µM of `N=C(N)c1ccc(NC(=O)Cn2c(-c3cccc(N)c3)c(Cl)nc(NC3CCC3)c2=O)cc1` is greater than or equal to 20%
FALSE

# check: inhibition at 100 µM of `CC(C)Nc1nc(Cl)c(-c2cc(N)cc(C(=O)NC3CCCCCC3)c2)n(CC(=O)NCc2ccc(C(=N)N)cc2)c1=O` is greater than or equal to 20%
TRUE

Entry `N=C(N)c1ccc(COCCn2c(-c3cccc(N)c3)c(Cl)nc(NC3CCC3)c2=O)cc1` : is its inhibition at 100 µM no less than 20%?
TRUE

Assess whether reported inhibition at 100 µM for `N=C(N)c1ccc(CNCCn2c(-c3cccc(N)c3)c(Cl)nc(NC3CCC3)c2=O)cc1` sits at 20% or higher.
TRUE

Does `CC(C)Nc1nc(Cl)c(-c2cc(N)cc(C(=O)NCc3ccccn3)c2)n(CC(=O)NCc2ccc(C(=N)N)cc2)c1=O` have a reported inhibition at 100 µM of at least 20%?
FALSE

inhibition at 100 µM >= 20% for `CC(C)Nc1nc(Cl)c(-c2cc(N)cc(C(=O)NC3CCC3)c2)n(CC(=O)NCc2ccc(C(=N)N)cc2)c1=O` ?
TRUE

Quick check, inhibition at 100 µM >= 20%? CC(CNc1nc(Cl)c(-c2cccc(N)c2)n(CC(=O)NCc2ccc(C(=N)N)cc2)c1=O)C(=O)O (stereo not shown)
TRUE

* * *

# Tested target: Human factor Xa (Homo sapiens, UniProt P00742)
# Sequence (P00742 41-179 limits assumed): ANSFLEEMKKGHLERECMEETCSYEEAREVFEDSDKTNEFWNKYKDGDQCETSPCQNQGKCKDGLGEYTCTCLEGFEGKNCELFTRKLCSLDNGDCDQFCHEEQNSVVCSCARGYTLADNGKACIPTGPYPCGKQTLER
# Sequence (P00742 235-488 limits assumed): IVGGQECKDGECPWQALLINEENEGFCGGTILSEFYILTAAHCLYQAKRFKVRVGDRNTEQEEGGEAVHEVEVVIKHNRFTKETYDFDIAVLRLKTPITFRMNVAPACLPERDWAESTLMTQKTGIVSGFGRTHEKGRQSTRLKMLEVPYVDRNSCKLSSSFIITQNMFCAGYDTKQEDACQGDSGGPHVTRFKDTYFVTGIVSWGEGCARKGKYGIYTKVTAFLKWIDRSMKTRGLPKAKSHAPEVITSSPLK
# Experiment description: Xa Assay
# Format: biochemical
# Set-up: purchased Enzyme Research Laboratories, South Bend Ind
# Condition notes: at 30 µM inhibitor
Readout label: % Inhibition Factor Xa (30 µM) (%)
A number alone suffices; assume %.

Give the measured % Inhibition Factor Xa (30 µM) of CN(C)CCNc1nc(Cl)c(-c2ccccc2)n(CC(=O)NCc2ccc(C(=N)N)cc2)c1=O [1512-15] .
6

Please look up its % Inhibition Factor Xa (30 µM): N=C(N)c1ccc(CNC(=O)Cn2c(-c3ccccc3)c(Cl)nc(NC3CCS(=O)(=O)C3)c2=O)cc1 (stereo not shown) [1507-36]
0

# lookup: % Inhibition Factor Xa (30 µM) of N=C(N)c1ccc(CNC(=O)Cn2c(-c3ccccc3)c(Cl)nc(NCc3cc(F)c(F)c(F)c3)c2=O)cc1 [1512-32]
5

Please give the measured % Inhibition Factor Xa (30 µM) for this molecule: N=C(N)c1ccc(CNC(=O)Cn2c(-c3cccc(Cl)c3)c(Cl)nc(NCc3ccncc3)c2=O)cc1 [1471-27]
16

* * *

# Tested target: Human factor Xa (Homo sapiens, UniProt P00742)
# Experiment description: Xa Assay
# Format: biochemical
# Parameters: purchased Enzyme Research Laboratories, South Bend Ind
# Condition notes: at 30 µM inhibitor
Readout label: % Inhibition Factor Xa (30 µM) (%)
Kindly answer with a numeric value in %, unit omitted.

[
  {
    "Molecule": "N=C(N)c1ccc(CNC(=O)Cn2c(-c3ccc(-c4ccccc4)cc3)c(Cl)nc(NCCc3cccnc3)c2=O)cc1 [1471-72]",
    "Readout label": "% Inhibition Factor Xa (30 µM)",
    "Measured value": 22
  },
  {
    "Molecule": "N=C(N)c1ccc(CNC(=O)Cn2c(-c3ccccc3)c(Cl)nc(NCc3cc(C(F)(F)F)ccc3F)c2=O)cc1 [1512-27]",
    "Readout label": "% Inhibition Factor Xa (30 µM)",
    "Measured value": 3
  },
  {
    "Molecule": "N=C(N)c1ccc(CNC(=O)Cn2c(-c3ccccc3)c(Cl)nc(NCc3ccccn3)c2=O)cc1 [1507-24]",
    "Readout label": "% Inhibition Factor Xa (30 µM)",
    "Measured value": 15
  },
  {
    "Molecule": "N=C(N)c1ccc(CNC(=O)Cn2c(-c3cccc(N)c3)c(Cl)nc(NC3CCC3)c2=O)cc1F [Example 40]",
    "Readout label": "% Inhibition Factor Xa (30 µM)",
    "Measured value": 0
  },
  {
    "Molecule": "CC(C)Nc1nc(Cl)c(-c2cccc(N)c2)n(CC(=O)NCCc2ccc(C(=N)N)cc2)c1=O [Example 62]",
    "Readout label": "% Inhibition Factor Xa (30 µM)",
    "Measured value": 10
  },
  {
    "Molecule": "N=C(N)c1ccc(CNC(=O)Cn2c(-c3ccc(-c4ccccc4)cc3)c(Cl)nc(NCCc3cccc(Cl)c3)c2=O)cc1 [1471-70]",
    "Readout label": "% Inhibition Factor Xa (30 µM)",
    "Measured value": 12
  }
]

Fill in: % Inhibition Factor Xa (30 µM) of Cc1c(Cl)nc(NCCc2ccccc2)c(=O)n1CC(=O)NCc1ccc(C(=N)N)cc1 [1471-7] is ___
4

For the molecule COc1ccc(-c2c(Cl)nc(NCCc3ccc(Cl)cc3)c(=O)n2CC(=O)NCc2ccc(C(=N)N)cc2)cc1 [1471-34] , what % Inhibition Factor Xa (30 µM) is on record?
24

* * *

Below are % Inhibition Thrombin II (30 µM) values measured for Human thrombin (Homo sapiens, UniProt P00734).
Provide a numeric answer, followed by its unit.

Look over these answered cases.
[
  {
    "Compound": "COC(=O)c1cc(N)cc(-c2cnc(NC3CCC3)c(=O)n2CC(=O)NCc2ccc(C(=N)N)cc2)c1 [Example 117]",
    "% Inhibition Thrombin II (30 µM)": "21%"
  },
  {
    "Compound": "N=C(NCc1ccccc1)c1ccc(CNC(=O)Cn2c(-c3cccc(N)c3)c(Cl)nc(NC3CCC3)c2=O)cc1 [Example 160]",
    "% Inhibition Thrombin II (30 µM)": "9%"
  },
  {
    "Compound": "CC(C)NC(=N)c1ccc(CNC(=O)Cn2c(-c3cccc(N)c3)c(Cl)nc(NC3CCC3)c2=O)cc1 [Example 161]",
    "% Inhibition Thrombin II (30 µM)": "7%"
  },
  {
    "Compound": "N=C(N)c1ccc(CNC(=O)Cn2c(-c3cc(N)cc(N)c3)cnc(NC3CCC3)c2=O)cc1 [Example 119]",
    "% Inhibition Thrombin II (30 µM)": "45%"
  },
  {
    "Compound": "CC(C)Nc1nc(Cl)c(-c2cccc(N)c2)n(CC(=O)Nc2ccc(S(=O)(=O)NC(=N)N)cc2)c1=O [Example 155]",
    "% Inhibition Thrombin II (30 µM)": "2%"
  }
]

Consider the compound shown here: N=C(N)c1ccc(CNC(=O)Cn2c(-c3ccccc3N)cnc(NC3CCC3)c2=O)cc1 [Example 116] What is its recorded % Inhibition Thrombin II (30 µM)?
27%

Looking for the measured % Inhibition Thrombin II (30 µM) of C/N=C(/NC)c1ccc(CNC(=O)Cn2c(-c3cccc(N)c3)c(Cl)nc(NC3CCC3)c2=O)cc1 [Example 162] , can you help?
2%

Looking for the measured % Inhibition Thrombin II (30 µM) of COCC/N=C(\NCCOC)c1ccc(CNC(=O)Cn2c(-c3cccc(N)c3)c(Cl)nc(NC3CCC3)c2=O)cc1 [Example 164] , can you help?
5%

Given the compound COCCNC(=N)c1ccc(CNC(=O)Cn2c(-c3cccc(N)c3)c(Cl)nc(NC3CCC3)c2=O)cc1 [Example 163] , what is its reported % Inhibition Thrombin II (30 µM)?
4%
